ASSAYED_TARGET: Beta-galactosidase (Bos taurus)
Sequence (Q58D55 whole entry): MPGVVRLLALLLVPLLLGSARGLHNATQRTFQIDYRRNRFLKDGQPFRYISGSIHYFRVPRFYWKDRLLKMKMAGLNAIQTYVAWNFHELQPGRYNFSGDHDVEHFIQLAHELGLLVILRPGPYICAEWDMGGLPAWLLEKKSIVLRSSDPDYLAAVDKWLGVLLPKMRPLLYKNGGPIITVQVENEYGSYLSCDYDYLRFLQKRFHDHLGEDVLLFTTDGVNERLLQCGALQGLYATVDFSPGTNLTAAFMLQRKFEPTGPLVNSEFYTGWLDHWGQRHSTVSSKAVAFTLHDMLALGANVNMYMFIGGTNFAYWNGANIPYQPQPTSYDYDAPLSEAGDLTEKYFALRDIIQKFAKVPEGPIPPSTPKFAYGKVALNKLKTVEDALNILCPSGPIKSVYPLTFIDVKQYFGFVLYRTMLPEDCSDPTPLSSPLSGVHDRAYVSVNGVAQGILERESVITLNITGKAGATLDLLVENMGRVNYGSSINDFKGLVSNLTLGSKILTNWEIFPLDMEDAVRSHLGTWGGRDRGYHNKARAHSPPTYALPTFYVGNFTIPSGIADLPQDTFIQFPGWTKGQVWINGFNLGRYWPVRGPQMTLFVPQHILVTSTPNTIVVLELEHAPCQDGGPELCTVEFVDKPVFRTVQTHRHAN
pKi: −log10 of the molar value.
We use 9 as the dividing line for pKi: on or above the line is satisfied, below is not satisfied.

INSERT INTO assay_data (query_smiles, assigned_label) VALUES
  ('COc1ccc(C/N=C2\N[C@H](CO)[C@H](O)[C@H](O)[C@H]2O)cc1', 'satisfied');

In the following, a different compound is considered.
Ask: Does "OC[C@H]1N/C(=N\CC2CC2)[C@H](O)[C@@H](O)[C@H]1O" have a reported pKi of at least 9?
Result: satisfied
